Target or system: Mitogen-activated protein kinase 9 (Homo sapiens, UniProt P45984)
Sequence (P45984 whole entry, the tested form may be a part): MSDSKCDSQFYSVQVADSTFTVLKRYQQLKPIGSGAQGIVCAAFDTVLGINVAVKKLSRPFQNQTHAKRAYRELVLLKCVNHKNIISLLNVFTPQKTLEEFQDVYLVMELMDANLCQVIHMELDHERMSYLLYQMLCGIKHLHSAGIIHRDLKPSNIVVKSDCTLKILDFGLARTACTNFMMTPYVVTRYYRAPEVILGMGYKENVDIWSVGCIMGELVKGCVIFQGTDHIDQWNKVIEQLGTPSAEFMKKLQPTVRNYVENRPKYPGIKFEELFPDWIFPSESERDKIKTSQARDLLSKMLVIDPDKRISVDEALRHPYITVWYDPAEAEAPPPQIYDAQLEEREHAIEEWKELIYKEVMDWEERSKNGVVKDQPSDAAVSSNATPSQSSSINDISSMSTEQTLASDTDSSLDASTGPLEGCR
Run description: Inhibition of His6-tagged JNK2 (unknown origin) assessed as reduction in c-Jun phosphorylation using GST-c-Jun (1 to 79 residues) and [gamma32P]ATP incubated for 1 hr by scintillation counting assay
pIC50: −log10 of the molar value.
Measured parameter: pIC50

>>> value_reported("Fc1ccc(-c2n[nH]c3ccc(/C=C/c4ccncc4)cc23)cc1")
"≥ 5.00"
>>> value_reported("O=C(N[C@H]1c2ccccc2C[C@H]1O)c1cccc(-c2n[nH]c3ccc(-c4ncn[nH]4)cc23)c1")
"5.00 to 6.00"
>>> value_reported("O=C(Nc1ccc2[nH]nc(-c3ccc(F)cc3)c2c1)c1ccncc1")
"5.00 to 6.00"
>>> value_reported("c1cc(OCCN2CCOCC2)cc(-c2n[nH]c3ccc(-c4nnn[nH]4)cc23)c1")
"5.00 to 6.30"
>>> value_reported("Clc1ccc(-c2n[nH]c3ccc(-c4nnn[nH]4)cc23)cc1")
"5.00 to 6.30"
>>> value_reported("O=C1CCCN1CCOc1cccc(-c2n[nH]c3ccc(-c4ncn[nH]4)cc23)c1")
"5.00 to 6.00"
>>> value_reported("O=C(Nc1cccc(-c2n[nH]c3ccc(-c4nc[nH]n4)cc23)c1)c1ccc(Cl)nc1")
"5.00 to 6.00"
>>> value_reported("O=C(NCc1cccnc1)c1ccc2[nH]nc(-c3ccc(F)cc3)c2c1")
"5.00 to 6.00"
>>> value_reported("O=C(Nc1ccc2[nH]nc(-c3ccccc3)c2c1)c1ccccc1O")
"5.00 to 6.00"
>>> value_reported("CC(=O)Nc1cccc(-c2n[nH]c3ccc(-c4ncn[nH]4)cc23)c1")
"5.00 to 6.00"
>>> value_reported("O=C(Nc1cccc(-c2n[nH]c3ccc(-c4nn[nH]n4)cc23)c1)c1ccco1")
"5.00 to 6.30"
>>> value_reported("O=C(Nc1ccccc1)c1cccc(-c2n[nH]c3ccc(-c4nc[nH]n4)cc23)c1")
"5.00 to 6.30"
>>> value_reported("COc1ccc(-c2n[nH]c3ccc([N+](=O)[O-])cc23)cc1OC")
"≥ 5.00"
>>> value_reported("CC(C)(C)NC(=O)c1cccc(-c2n[nH]c3ccc(-c4ncn[nH]4)cc23)c1")
"5.00 to 6.30"
>>> value_reported("O=C(O)CCc1ccc2[nH]nc(-c3ccc(F)cc3)c2c1")
"≥ 5.00"

====

Target or system: Mitogen-activated protein kinase 9 (Homo sapiens)
Run description: Inhibition of His6-tagged JNK2 (unknown origin) assessed as reduction in c-Jun phosphorylation using GST-c-Jun (1 to 79 residues) and [gamma32P]ATP incubated for 1 hr by scintillation counting assay
pIC50: −log10 of the molar value.
Measured parameter: pIC50

>>> value_reported("COc1ccc(-c2n[nH]c3ccc(N)cc23)cc1")
"≥ 5.00"
>>> value_reported("CNC(=O)c1ccc2[nH]nc(-c3cc4ccccc4o3)c2c1")
"5.00 to 6.00"
>>> value_reported("O=C(O)c1cccc(-c2n[nH]c3ccc(-c4nc[nH]n4)cc23)c1")
"5.00 to 6.00"
